Experiment: Concentration of ladostigil in plasma of rats after oral or rectal administration (LC-MS/MS)
Format: in vivo
Settings: male, rat, Wistar rats, single oral dose 5 mg/kg, 120 min (Table 1), read-out: Concentration of ladostigil in plasma, mean ± STD (coefficient of variation)
readout-type: concentration at 120 min (ng/mL)
Provide only the numeric value, understood in ng/mL.

Looking for the measured concentration at 120 min of C#CCN[C@@H]1CCc2ccc(OC(=O)N(C)CC)cc21 [ladostigil] , can you help? 4.9

---

Assay: Concentration of ladostigil in plasma of rats after oral or rectal administration (LC-MS/MS)
Type: in vivo
Conditions: male, Wistar, rat, other: rectal administration, rats, rectal administration 5 mg/kg, 120 min, * significantly higher than after oral treatment p < 0.05, read-out: Concentration of ladostigil in plasma, mean ± STD (coefficient of variation)
readout-type: concentration at 120 min
Please append the unit to your numeric answer.

# input compound: C#CCN[C@@H]1CCc2ccc(OC(=O)N(C)CC)cc21 [ladostigil] ; wanted: its concentration at 120 min 0.0141 µg/mL

---

Assay: Concentration of ladostigil in plasma of rats after oral or rectal administration (LC-MS/MS)
Format: in vivo
Conditions: male, rat, Wistar rats, single oral dose 5 mg/kg, 180 min (Table 1), read-out: Concentration of ladostigil in plasma, mean ± STD (coefficient of variation)
readout-type: concentration at 180 min (ng/mL)
Write it as a number; the unit ng/mL goes unstated.

# concentration at 180 min lookup, item `C#CCN[C@@H]1CCc2ccc(OC(=O)N(C)CC)cc21` 2.4

---

Assay: Concentration of ladostigil in plasma of human subjects after a single oral dose (LC/MS/MS)
Assay type: in vivo, humans
Conditions: normal healthy subjects aged 18-40, single oral dose 100 mg, 120 min, read-out: Concentration of ladostigil in plasma, mean ± STD (coefficient of variation)
readout-type: concentration at 120 min
A complete answer gives the number followed by the unit.

Look up concentration at 120 min for this compound: `C#CCN[C@@H]1CCc2ccc(OC(=O)N(C)CC)cc21` 44.4 ng/mL

---

Test: Concentration of ladostigil in plasma of human subjects after a single oral dose (LC/MS/MS)
Format: in vivo, humans
Details: normal healthy subjects aged 18-40, single oral dose 50 mg, 15 min, read-out: Concentration of ladostigil in plasma, mean ± STD (coefficient of variation)
readout-type: concentration at 15 min (ng/mL)
Give the value, in units of ng/mL, as a plain number.

Reported concentration at 15 min, compound C#CCN[C@@H]1CCc2ccc(OC(=O)N(C)CC)cc21 [ladostigil] : ____ 3.74

---

Test: Concentration of ladostigil in brain (cortex) of rats after oral or rectal administration (LC-MS/MS)
Assay type: in vivo
Conditions: male, Wistar, rat, other: rectal administration, rectal administration 5 mg/kg, 120 min, read-out: Concentration of ladostigil in brain (cortex), mean ± STD (coefficient of variation)
readout-type: concentration at 120 min (ng/g)
Lab book: enter the figure in ng/g, no units written.

Given the entry C#CCN[C@@H]1CCc2ccc(OC(=O)N(C)CC)cc21 [ladostigil] , report its measured concentration at 120 min. 7.4

---

Assay: Concentration of ladostigil in brain (cortex) of rats after oral or rectal administration (LC-MS/MS)
Assay type: in vivo
Details: male, Wistar, rat, oral administration (gavage) 5 mg/kg, 60 min, read-out: Concentration of ladostigil in brain (cortex), mean ± STD (coefficient of variation)
readout-type: concentration at 60 min (ng/g)
Entry rule: numbers only, all in ng/g.

Fill in the blank: the reported concentration at 60 min of `C#CCN[C@@H]1CCc2ccc(OC(=O)N(C)CC)cc21` is ____. 6.7

---

Assay: Concentration of ladostigil in brain (cortex) of rats after oral or rectal administration (LC-MS/MS)
Assay type: in vivo
Conditions: male, Wistar, rat, other: rectal administration, rectal administration 5 mg/kg, 15 min, read-out: Concentration of ladostigil in brain (cortex), mean ± STD (coefficient of variation)
readout-type: concentration at 15 min
Remember to quote the unit after the number.

Which measured concentration at 15 min value corresponds to `C#CCN[C@@H]1CCc2ccc(OC(=O)N(C)CC)cc21` ? 14.3 ng/g

---

Experiment: Concentration of ladostigil in plasma of rats after oral or rectal administration (LC-MS/MS)
Assay type: in vivo
Settings: rat, Wistar rats, single oral dose 1 mg/kg, 15 min, read-out: Concentration of ladostigil in plasma, mean ± STD (coefficient of variation)
readout-type: concentration at 15 min (µg/mL)
Numbers only; they are read as µg/mL.

Look up concentration at 15 min: `C#CCN[C@@H]1CCc2ccc(OC(=O)N(C)CC)cc21` 0.0187

---

Assay: Concentration of ladostigil in plasma of rats after oral or rectal administration (LC-MS/MS)
Format: in vivo
Conditions: rat, Wistar rats, single oral dose 1 mg/kg, 120 min, read-out: Concentration of ladostigil in plasma, mean ± STD (coefficient of variation)
readout-type: concentration at 120 min (ng/mL)
Numbers only; they are read as ng/mL.

Look up concentration at 120 min: C#CCN[C@@H]1CCc2ccc(OC(=O)N(C)CC)cc21 [ladostigil] 1.6

---

Assay: Concentration of ladostigil in plasma of human subjects after a single oral dose (LC/MS/MS)
Type: in vivo, humans
Conditions: normal healthy subjects aged 18-40, single oral dose 100 mg, 60 min, read-out: Concentration of ladostigil in plasma, mean ± STD (coefficient of variation)
readout-type: concentration at 60 min

Dear colleague, I am looking for the recorded concentration at 60 min of the following compound: C#CCN[C@@H]1CCc2ccc(OC(=O)N(C)CC)cc21 [ladostigil] 97.6 ng/mL

---

Test: Concentration of ladostigil in brain (cortex) of rats after oral or rectal administration (LC-MS/MS)
Format: in vivo
Conditions: male, Wistar, rat, oral administration (gavage) 5 mg/kg, 15 min, read-out: Concentration of ladostigil in brain (cortex), mean ± STD (coefficient of variation)
readout-type: concentration at 15 min (ng/g)
Write the value in ng/g as a bare number.

Any idea what concentration at 15 min was measured for `C#CCN[C@@H]1CCc2ccc(OC(=O)N(C)CC)cc21` ? 17.9

---

Assay: Concentration of ladostigil in brain (cortex) of rats after oral or rectal administration (LC-MS/MS)
Assay type: in vivo
Details: male, Wistar, rat, oral administration (gavage) 5 mg/kg, read-out: Concentration of ladostigil in brain (cortex), mean ± STD (coefficient of variation)
readout-type: concentration at 180 min (ng/g)
API: value field is a number in ng/g; no unit string.

# query: concentration at 180 min of entry `C#CCN[C@@H]1CCc2ccc(OC(=O)N(C)CC)cc21` 2.9

---

Experiment: Concentration of ladostigil in plasma of human subjects after a single oral dose (LC/MS/MS)
Type: in vivo, humans
Details: normal healthy subjects aged 18-40, single oral dose 100 mg, 15 min, read-out: Concentration of ladostigil in plasma, mean ± STD (coefficient of variation)
readout-type: concentration at 15 min (ng/mL)
Write the value in ng/mL as a bare number.

Quick check: concentration at 15 min of C#CCN[C@@H]1CCc2ccc(OC(=O)N(C)CC)cc21 [ladostigil] ? 9.3

---

Assay: Concentration of ladostigil in plasma of rats after oral or rectal administration (LC-MS/MS)
Type: in vivo
Conditions: male, Wistar, rat, other: rectal administration, rats, rectal administration 5 mg/kg, 180 min, * significantly higher than after oral treatment p < 0.05, read-out: Concentration of ladostigil in plasma, mean ± STD (coefficient of variation)
readout-type: concentration at 180 min

Param item = C#CCN[C@@H]1CCc2ccc(OC(=O)N(C)CC)cc21 [ladostigil] ; retrieve measured concentration at 180 min. 13.9 ng/mL

---

Test: Concentration of ladostigil in plasma of human subjects after a single oral dose (LC/MS/MS)
Format: in vivo, humans
Conditions: normal healthy subjects aged 18-40, single oral dose 50 mg, 60 min, read-out: Concentration of ladostigil in plasma, mean ± STD (coefficient of variation)
readout-type: concentration at 60 min (ng/mL)
Only the number, expressed in ng/mL, is required.

concentration at 60 min lookup needed for C#CCN[C@@H]1CCc2ccc(OC(=O)N(C)CC)cc21 [ladostigil] , thanks. 8.29

---

Assay: Concentration of ladostigil in brain (cortex) of rats after oral or rectal administration (LC-MS/MS)
Format: in vivo
Details: male, Wistar, rat, other: rectal administration, rectal administration 5 mg/kg, 30 min, read-out: Concentration of ladostigil in brain (cortex), mean ± STD (coefficient of variation)
Description: Methods: Male Wister rats weighing 250-270g were used for these experiments. Ladostigil was administered by gavage at a dose of 5 mg/kg (volume 0.25-0.27ml). […] Ladostigil and rivastigmine were detected by an AB Sciex (Framingham, MA, USA) Triple Quad™ 5500 mass spectrometer in positive ion mode by electrospray ionization (ESI) and a multiple reaction monitoring (MRM) mode of acquisition. […] Quantitative calibration (0-100 ng/ml) was performed before every batch of samples. […]
readout-type: concentration at 30 min (ng/g)
Give the value in ng/g but do not write ng/g after it.

Record request: concentration at 30 min value, item C#CCN[C@@H]1CCc2ccc(OC(=O)N(C)CC)cc21 [ladostigil] 11.9
